# Lookup of reported pIC50 keyed by entry
- experimental-target: purified recombinant human GAC (GLS1) (Homo sapiens (Human))
- Sequence (O94925 other isoform, or with tags, fused parts or gaps): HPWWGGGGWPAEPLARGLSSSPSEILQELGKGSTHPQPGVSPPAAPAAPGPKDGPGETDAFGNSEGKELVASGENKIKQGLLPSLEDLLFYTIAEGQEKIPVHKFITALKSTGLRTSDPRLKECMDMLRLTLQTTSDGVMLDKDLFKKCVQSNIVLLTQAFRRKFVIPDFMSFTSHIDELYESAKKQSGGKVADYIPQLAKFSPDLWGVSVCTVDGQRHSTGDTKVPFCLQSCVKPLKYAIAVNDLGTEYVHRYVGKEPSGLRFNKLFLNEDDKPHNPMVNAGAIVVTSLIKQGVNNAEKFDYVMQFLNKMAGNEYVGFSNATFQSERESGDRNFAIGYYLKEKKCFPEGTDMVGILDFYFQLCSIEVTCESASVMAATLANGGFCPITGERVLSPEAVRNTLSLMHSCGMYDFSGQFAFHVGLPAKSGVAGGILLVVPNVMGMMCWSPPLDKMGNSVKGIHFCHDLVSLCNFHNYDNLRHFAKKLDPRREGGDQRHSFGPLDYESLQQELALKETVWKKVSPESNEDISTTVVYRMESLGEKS
- procedure-details: GLS1 Enzymatic Activity Assay (dual-coupled enzymatic assay, resorufin/Amplex UltraRed readout);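 note: glutamate from GAC coupled via glutamate oxidase and peroxidase to resorufin, read as fluorescence (ex 530, em 590 nm) kinetically or at 20 min, four-parameter logistic IC50 fit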
pIC50: −log10 of the molar value.

{"columns": ["compound", "measured-attribute", "reported"],
 "data": [
  ["O=C(Cc1ccccn1)Nc1cn(CC(F)CCn2cc(C(=O)NCc3ccccn3)nn2)nn1 (stereo not drawn)", "pIC50", "5.30 to 6.30"],
  ["O=C(Cc1cccc(OC(F)(F)F)c1)Nc1ccc(CCCCn2cc(C(=O)NCC(CO)CO)nn2)nn1", "pIC50", "5.30 to 6.30"],
  ["O=C(NCc1cncc(C(F)(F)F)c1)c1cn(CCC(F)Cn2cc(C(=O)NCc3cc(C(F)(F)F)ccn3)nn2)nn1 (stereo not drawn)", "pIC50", "> 7.00"],
  ["CNC(=O)c1cn(C[C@H](F)CCc2nnc(NC(=O)Cc3cccc(OC(F)(F)F)c3)s2)nn1", "pIC50", "> 7.00"]
]}

[ask] Let me know recorded pIC50 for O=C(Cc1cccc(OC(F)(F)F)c1)Nc1cn(CCCCn2cc(C(=O)NCc3cc(Cl)ccc3F)nn2)nn1 , thanks.
[reply] > 7.00

[ask] Let me know recorded pIC50 for Cn1cnc(CC(=O)Nc2nnc(CCC(F)Cn3cc(C(=O)NCc4cc(OC(F)(F)F)ccc4F)nn3)s2)c1 (stereo not drawn) , thanks.
[reply] > 7.00

[ask] Let me know recorded pIC50 for CNC(=O)c1cn(C[C@@H](F)CCc2nnc(NC(=O)Cc3cccc(OC(F)(F)F)c3)s2)nn1 [Example 194] , thanks.
[reply] > 7.00

Origin of measurements: patent US10344025B2
